- System: LOX IMVI melanoma
- EXPERIMENT_DESCRIPTION: NCI-60 one-dose screen, 48 h
- APPLIED_CONDITIONS: 10 µM unless noted
Compounds without any hit were thinned out: in the full panel of roughly 83,000, 20% have a hit. Active and inactive are the calls of the source. How the source made its calls: active means growth percent below 10; inactive means the rest.
Returns: one label drawn from 1 (yes) (active), 0 (no) (inactive)

Some solved cases for reference:
{"COMPOUND": "CCCCC[C@H](O)C/C=C1/C(=O)C=C[C@@H]1C/C=C\\CCCC(=O)O", "LABEL_CLASS": "1 (yes)"}
{"COMPOUND": "O=C(O)C(c1ccccc1)N1C(=O)CSC1=S (stereo not given)", "LABEL_CLASS": "0 (no)"}

Exercise: Just curious, what result did "c1ccc2cc(C[n+]3ccn(CCCCCCn4cc[n+](Cc5ccc6ccccc6c5)c4)c3)ccc2c1" get here?
Key: 0 (no)

Exercise: Just curious, what result did "O=C(Cc1ccc(F)c(Cl)c1)Nc1cc(C2(C(F)(F)F)CC2)nn1CC1CCCCC1" get here?
Key: 0 (no)

Exercise: Just curious, what result did "CCN(CC)CCCNc1nc2ccccc2c2c(=O)c3cc(Cl)ccc3sc12" get here?
Key: 1 (yes)

Exercise: Just curious, what result did "Cc1ccc(-c2nc3c(c(-c4ccccc4)nn3-c3ccccc3)c(-c3ccc(O)cc3)c2C#N)cc1" get here?
Key: 0 (no)

Exercise: Just curious, what result did "Brc1c[n+](Cc2ccc3ccccc3c2)cn1Cc1ccc2ccccc2c1" get here?
Key: 1 (yes)

Exercise: Just curious, what result did "CC[C@H](C)C(=O)O[C@H]1CCC=C2C=C[C@H](C)[C@H](CC[C@@H]3CC=CC(=O)O3)[C@H]21" get here?
Key: 0 (no)

Exercise: Just curious, what result did "CCc1ccc2nc(NC(=O)Cc3csc(NC(=O)c4ccco4)n3)sc2c1" get here?
Key: 0 (no)

Exercise: Just curious, what result did "Cc1nn(-c2ccccc2)c(-n2ccnc2)c1/C=N/Nc1nc(-c2ccc(F)cc2)cs1" get here?
Key: 0 (no)

Exercise: Just curious, what result did "NCCNc1nc2ccccc2c2c(=O)c3cccc(F)c3sc12" get here?
Key: 0 (no)

Exercise: Just curious, what result did "COc1ccc(-c2nc3sc(-c4ccc(Cl)cc4)cn3n2)cc1" get here?
Key: 0 (no)

Exercise: Just curious, what result did NCCOc1ncccc1/C=C1\C2C=CC=CC2C2C=CC(F)=CC12 (stereo not given) get here?
Key: 1 (yes)

Exercise: Just curious, what result did "c1ccc2c(-c3nc(-c4c[nH]c5ccncc45)cs3)c[nH]c2c1" get here?
Key: 1 (yes)

Exercise: Just curious, what result did "C[C@]12CC[C@@H]3c4cc(OC(F)F)c(OS(N)(=O)=O)cc4CC[C@H]3[C@@H]1CC[C@@H]2OS(N)(=O)=O" get here?
Key: 0 (no)

Exercise: Just curious, what result did "CN(C)CC#Cc1ccc2ncc(C#N)c(Nc3ccc(F)c(Cl)c3)c2c1" get here?
Key: 0 (no)

Exercise: Just curious, what result did CC(=O)N1N=C(c2ccc(Nc3nc(Nc4ccc(F)cc4)nc(Nc4ccc(Cl)cc4)n3)cc2)CC1c1ccc(Cl)cc1 (stereo not given) get here?
Key: 0 (no)

Exercise: Just curious, what result did OC(COc1ccccc1Cl)CN1CCN(c2cccc(Cl)c2)CC1 (stereo not given) get here?
Key: 0 (no)

Exercise: Just curious, what result did "CC/C=C\C[C@@H](O)C/C=C1/C(=O)C=C[C@H]1C/C=C\CCCC(=O)OC" get here?
Key: 1 (yes)

Exercise: Just curious, what result did "COc1ccc2nc(NC(=O)c3cccnc3Nc3ccc(S(N)(=O)=O)cc3)sc2c1" get here?
Key: 0 (no)
